- Measurement Notes: in vitro
- Applied Conditions: human, hela cells, % viability
Label key: label 1 means viability at 28.5 h, 10 µM under 90%; label 0 means viability at 28.5 h, 10 µM of 90% or more.

See these solved cases before continuing.
Cc1nc(C(=O)NCC2CN3CCCN2CC3)ccc1C(=O)O (stereo not drawn) | label 0
CC(C)(C)c1cc(CN(Cc2cc(C(C)(C)C)c(O)c(C(C)(C)C)c2)C2CCCCC2)cc(C(C)(C)C)c1O | label 0
c1ccc(CN2CCN(Cc3c[nH]c(-c4ccccc4)n3)CC2)cc1 | label 1

Asked: Does `CCN(C(=O)Cc1cc(OC)ccc1Br)c1cccnc1` have viability at 28.5 h, 10 µM strictly under 90%?
Given back: label 0

Asked: Same thing, different molecule: `NC(=O)c1ccccc1NC(=O)CSc1nc(N)cc(N)n1`
Given back: label 0

Asked: Same thing, different molecule: CC(=O)Oc1ccc(NC(=O)C2CC(Cl)=CCC2C(=O)O)cc1C(=O)O (stereo not drawn)
Given back: label 0

Asked: Same thing, different molecule: `Cc1nn(CC(=O)N2CCCCCC2)c(=O)c2cc3sccc3n12`
Given back: label 1

====

- Measurement Notes: in vitro
- Applied Conditions: human, hela cells, % viability
Readout Kind: viability at 28.5 h, 10 µM (%)
Note: unit % is implicit; provide only the numeric part.

Solved cases below.
Cc1nonc1-c1csc(CC(C)n2cc(Cl)cn2)n1 (stereo not drawn) | 92.2
CC(=O)N1CCN(c2cncc(-c3ccc(O)cc3)n2)CC1 [CBK126948T] | 88.9
O=[N+]([O-])c1ccc(-c2csc(Nc3ccc4c(c3)OCO4)n2)cc1 [CBK262448B] | 100

Asked: Which viability at 28.5 h, 10 µM value is on record for CCCCC(CC)C(=O)N1CCN(c2ccc(OC)cc2)CC1 (stereo not drawn) ?
Given back: 99.9

Asked: Same thing, different compound: OC1(C(F)(F)F)C=C(c2cccs2)ON1 (stereo not drawn)
Given back: 89

====

# viability at 28.5 h, 10 µM per entry
- Measurement Notes: in vitro
- Applied Conditions: human, hela cells, % viability
Note: unit % is implicit; provide only the numeric part.

Solved cases below.
Cc1ccccc1-c1cc(=O)[nH]c(Nc2ccccc2)n1 [CBK288142] | 97
CCc1cc(Br)ccc1S(=O)(=O)Nc1ccccc1O [CBK043877] | 92
COc1ccc(CCNc2c(Cc3ccccc3)c(C)c(C#N)c3nc4ccccc4n23)cc1OC [CBK263135] | 93
CC(=O)NC(c1ccccn1)C1CCN(C(=O)C2CCCCC2)CC1 (centres unmarked) [CBK285049] | 98

Asked: Which viability at 28.5 h, 10 µM value is on record for CCOC(=O)c1cnn2c(O)cc(CN3CCCc4ccccc43)nc12 [CBK305694] ?
Given back: 118

====

# viability at 28.5 h, 1 µM per entry
- Measurement Notes: in vitro
- Set-up: Viability of infected HeLa host cells, resazurin conversion, bulk resorufin fluorescence relative to DMSO
- Applied Conditions: human, hela cells; bulk resorufin, mean of 2
Quick note: unit goes after the number.

c1ccc(-c2nnc3ccccc3c2N2CCNCC2)cc1 [CBK066888] | 114%
CC(=O)NC[C@H]1CN(c2ccc(C3=CC[S+]([O-])CC3)c(F)c2)C(=O)O1 (stereo partly drawn) [CBK017555] | 88%
CC(=O)NC[C@H]1CN(c2ccc(C#N)c(C)c2)C(=O)O1 [CBK010393] | 89.7%
O=C(c1cccs1)N1C[C@H](c2ccc(F)cc2)[C@H]2CN(Cc3ccccc3)CC[C@H]21 [CBK285544] | 93.4%
Cc1noc(NS(=O)(=O)c2ccc(NC(=O)COc3ccc(Cl)cc3Cl)cc2)c1C [CBK262142] | 95.1%

Asked: Which viability at 28.5 h, 1 µM value is on record for Cc1noc(NS(=O)(=O)c2ccc(NC(=O)/C=C/c3ccc(C(C)C)cc3)cc2)c1C [CBK265430] ?
Given back: 108%

Asked: Same thing, different compound: O=C1Oc2nc3ccccc3cc2CN1C1CC1 [CBK282870]
Given back: 112%

Asked: Same thing, different compound: Cc1ccc(N2C(=O)c3[nH]nc(C)c3C2c2ccc(O)cc2)cc1 (stereo not drawn) [CBK287915]
Given back: 98%

Asked: Same thing, different compound: O=[N+]([O-])c1cc2c(cc1C(Nc1ccccn1)c1cc(Cl)c3cccnc3c1O)OCO2 (stereo not drawn) [CBK267795]
Given back: 95.1%
